# subject-of-test: Msn1 (UniProt P22148)
# Sequence: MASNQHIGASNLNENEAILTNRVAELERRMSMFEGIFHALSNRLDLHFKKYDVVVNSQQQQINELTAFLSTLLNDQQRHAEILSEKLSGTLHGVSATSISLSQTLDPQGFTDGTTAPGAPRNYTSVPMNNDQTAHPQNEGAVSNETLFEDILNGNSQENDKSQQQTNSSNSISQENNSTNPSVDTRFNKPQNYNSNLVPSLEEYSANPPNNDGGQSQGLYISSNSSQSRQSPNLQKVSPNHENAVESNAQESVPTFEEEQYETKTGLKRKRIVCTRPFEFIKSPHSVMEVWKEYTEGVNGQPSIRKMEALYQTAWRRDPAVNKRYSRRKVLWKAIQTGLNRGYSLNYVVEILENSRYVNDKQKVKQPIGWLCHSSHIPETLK
# assay-protocol: PBM E-score (8-mer binding enrichment) (E-score (-0.5 to 0.5)); higher = stronger / more preferred TF binding
# experimental-parameters: protein concentration: 200 nM; construct: GST-full length
Whole data set: some 33,000 sequences, median “E-score (-0.5 to 0.5)” near -0.013, cut for the highest 2% near 0.3. The sample holds the highest values, similar sequences and a random draw of the others, so the mix is not that of the screen.
Exercise: state measured PBM E-score for each of the sequences provided.
Answer with a number only.

Consider the sequence `ACAATGTA` . State its measured PBM E-score.
0.156

Consider the sequence `CCAAAGAG` . State its measured PBM E-score.
-0.0341

Consider the sequence `ATTAATTA` . State its measured PBM E-score.
0.0938

Consider the sequence `CAGAGAAG` . State its measured PBM E-score.
-0.18

Consider the sequence `AGCACCAA` . State its measured PBM E-score.
0.0195

Consider the sequence `AGTTATTA` . State its measured PBM E-score.
0.0736

Consider the sequence `TAACATAA` . State its measured PBM E-score.
0.214

Consider the sequence `AAGGACTG` . State its measured PBM E-score.
-0.0408

Consider the sequence `TGACATAA` . State its measured PBM E-score.
0.364

Consider the sequence `TCACATAA` . State its measured PBM E-score.
-0.0221

Consider the sequence `CTACATAA` . State its measured PBM E-score.
-0.237

Consider the sequence `CAGAATGC` . State its measured PBM E-score.
-0.094

Consider the sequence `ATATCCTG` . State its measured PBM E-score.
0.0176

Consider the sequence `AAGGACGT` . State its measured PBM E-score.
0.32

Consider the sequence `AATCTTCA` . State its measured PBM E-score.
0.211

Consider the sequence `CCCATGTA` . State its measured PBM E-score.
0.0749

Consider the sequence `ACATACAT` . State its measured PBM E-score.
0.309

Consider the sequence `ACAAATCA` . State its measured PBM E-score.
0.266

Consider the sequence `TAGACAAA` . State its measured PBM E-score.
0.446

Consider the sequence `GGTGCTAC` . State its measured PBM E-score.
-0.204

Consider the sequence `CCAATGTC` . State its measured PBM E-score.
0.328

Consider the sequence `CCAATGAC` . State its measured PBM E-score.
-0.00959

Consider the sequence `GGACATAC` . State its measured PBM E-score.
0.48

Consider the sequence `CGCATGTA` . State its measured PBM E-score.
0.0633

Consider the sequence `CAGTACAA` . State its measured PBM E-score.
0.262

Consider the sequence `GGTCACAA` . State its measured PBM E-score.
-0.0198

Consider the sequence `ACAAATCT` . State its measured PBM E-score.
0.308

Consider the sequence `ACCATGTC` . State its measured PBM E-score.
0.218

Consider the sequence `TAGTACAA` . State its measured PBM E-score.
0.321

Consider the sequence `CCCATGTC` . State its measured PBM E-score.
0.316

Consider the sequence `AACTACTT` . State its measured PBM E-score.
0.00311

Consider the sequence `AAGGACGA` . State its measured PBM E-score.
0.0414

Consider the sequence `ACATACAC` . State its measured PBM E-score.
0.207

Consider the sequence `CAGGACCA` . State its measured PBM E-score.
-0.0434

Consider the sequence `AGCATGTG` . State its measured PBM E-score.
-0.0619

Consider the sequence `ACATAAAT` . State its measured PBM E-score.
0.307

Consider the sequence `ACATAAAG` . State its measured PBM E-score.
0.224

Consider the sequence `CGACATAC` . State its measured PBM E-score.
0.281

Consider the sequence `ACATACAG` . State its measured PBM E-score.
0.167

Consider the sequence `GAGTACAA` . State its measured PBM E-score.
0.262

Consider the sequence `CCAATGTA` . State its measured PBM E-score.
0.0173

Consider the sequence `AAGGACGG` . State its measured PBM E-score.
-0.145

Consider the sequence `CGTCACAA` . State its measured PBM E-score.
0.137

Consider the sequence `GCAGCCCA` . State its measured PBM E-score.
-0.0983

Consider the sequence `TGTCACAA` . State its measured PBM E-score.
0.378

Consider the sequence `TAGGAATA` . State its measured PBM E-score.
0.0598
